- test: Tested for the peak time in mice following 40 mg/kg oral dose of cephalosporin
- Format: ADME, organism-based
- Design: dose 40 mg/kg, route oral
- condition details: mouse, in vivo, read-out: Peak time (converted)
experimental readout: Tmax
Enter the number, and then the unit.

### Prompt Which Tmax value is on record for CC1=C(C(=O)O)N2C(=O)C(NC(=O)[C@H](N)c3ccc4c(c3)OCO4)C2SC1 (stereo partly specified) ?
### Response 10 min

* * *

Entries and their MIC
- Test system: Proteus mirabilis
- test: Tested for inhibition of visible growth of Proteus mirabilis
- Format: functional
Numbers only here, please. The scale is µg/mL.

See these solved cases before continuing.
compound | unit string | value
CC(=O)OCC1=C(C(=O)O)N2C(=O)C(NC(=O)[C@H](N)c3ccc4c(c3)CCO4)C2SC1 (stereo partly drawn) | µg/mL | 50
CC(=O)OCC1=C(C(=O)O)N2C(=O)C(NC(=O)C(O)c3ccc4c(c3)CCO4)C2SC1 (racemic) | µg/mL | 50
CC(=O)OCC1=C(C(=O)O)N2C(=O)C(NC(=O)C(N)c3cccc4c3OCO4)C2SC1 (racemic) | µg/mL | 100
N[C@@H](C(=O)NC1C(=O)N2C(C(=O)O)=C(CSc3c[nH]nn3)CSC12)c1ccc2c(c1)OCO2 (stereo partly drawn) | µg/mL | 50

### Prompt Could you share what MIC was measured for CC1=C(C(=O)O)N2C(=O)[C@@H](NC(=O)[C@H](N)c3ccccc3)[C@H]2SC1 [CEPHALEXIN ANHYDROUS] , tested on Proteus mirabilis?
### Response 12.5
